- Tested on: AsPC-1 pancreatic cancer cells
- test: Phototoxicity (PDT), MTT assay, AsPC-1
- Assay type: cell-based
- condition.label: 12.5 μM photosensitizer, 3 h, 50 mW 0.09 J/cm^2 laser 100 sec, 72 h incubation
measurement.label: Cell viability, Phototoxicity against AsPC-1 (%)
Give your result in % as a bare value.

>>> value_reported("C=Cc1c(C)c2cc3nc(c(CC(=O)O)c4[nH]c(cc5nc(cc1[nH]2)C(C)=C5CC)c(C)c4C(=O)O)[C@@H](CCC(=O)O)[C@@H]3C")
66.31
>>> value_reported("C=Cc1c(C)c2cc3nc(c(CC(=O)OC)c4[nH]c(cc5nc(cc1[nH]2)C(C)=C5CC)c(C)c4C(=O)NCCCNC(=O)CCCC(=O)Oc1ccc(/C=C/C(=O)CC(=O)/C=C/c2ccc(O)c(OC)c2)cc1OC)C(CCC(=O)OC)C3C (centres unmarked) [Compound 7, Chlorine e6-curcumin Conjugate (7)]")
24.03
>>> value_reported("C=Cc1c(C)c2cc3nc(c(CC(=O)OC)c4[nH]c(cc5nc(cc1[nH]2)C(C)=C5CC)c(C)c4C(=O)NCCCCCCNC(=O)CCCC(=O)Oc1ccc(/C=C/C(=O)CC(=O)/C=C/c2ccc(O)c(OC)c2)cc1OC)C(CCC(=O)OC)C3C (centres unmarked) [Compound 10, Chlorine e6-curcumin Conjugate (10)]")
34.05
>>> value_reported("C=Cc1c(C)c2cc3nc(c(CC(=O)OC)c4[nH]c(cc5nc(cc1[nH]2)C(C)=C5CC)c(C)c4C(=O)NCCOCCOCCNC(=O)CCCC(=O)Oc1ccc(/C=C/C(=O)CC(=O)/C=C/c2ccc(O)c(OC)c2)cc1OC)C(CCC(=O)OC)C3C (centres unmarked) [Compound 13, Chlorine e6-curcumin Conjugate (13)]")
6.48

Could you now consider this next compound?
Query string: Query (compound): C=Cc1c(C)c2cc3nc(c(CC(=O)OC)c4[nH]c(cc5nc(cc1[nH]2)C(C)=C5CC)c(C)c4C(=O)NCCCOCCOCCOCCCNC(=O)CCCC(=O)Oc1ccc(/C=C/C(=O)CC(=O)/C=C/c2ccc(O)c(OC)c2)cc1OC)[C@@H](CCC(=O)OC)[C@@H]3C [Compound 16, Chlorine e6-curcumin Conjugate (16)] ; field requested: Cell viability, Phototoxicity against AsPC-1
Result string: 32.67

From: patent US20200172549A1
